Recorded values, source patent US20220324969A1.

Target: CD33 (Sino Biological, Cat #12238-H08H) (UniProt P20138 18-259)
Sequence (P20138 18-259 limits assumed): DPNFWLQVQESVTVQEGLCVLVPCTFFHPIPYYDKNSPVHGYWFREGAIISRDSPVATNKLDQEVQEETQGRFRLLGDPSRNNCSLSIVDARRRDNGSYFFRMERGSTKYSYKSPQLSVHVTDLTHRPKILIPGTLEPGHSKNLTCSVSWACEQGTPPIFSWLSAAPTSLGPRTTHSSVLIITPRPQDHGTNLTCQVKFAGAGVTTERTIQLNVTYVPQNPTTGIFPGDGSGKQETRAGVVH
Assay: BLI, IgG captured on anti-human Fc sensor, 50 nM CD33, pH 7.4 vs pH 5.4
ENDPOINT_NAME: binding result

BINDER	ENDPOINT_NAME	VALUE_MEASURED
MYT1213 (antibody, V domains shown, IgG; IMGN779 VH variant #1 (G26H)) VH: QVQLQQPGAEVVKPGASVKMSCKASHYTFTSYYIHWIKQTPGQGLEWVGVIYPGNDDISYNQKFQGKATLTADKSSTTAYMQLSSLTSEDSAVYYCAREVRLRYFDVWGQGTTVTVSS VL: EIVLTQSPGSLAVSPGERVTMSCKSSQSVFFSSSQKNYLAWYQQIPGQSPRLLIYWASTRESGVPDRFTGSGSGTDFTLTISSVQPEDLAIYYCHQYLSSRTFGQGTKLEIK	binding result	binds
MYT1179 (antibody, V domains shown, IgG; gemtuzumab VH combination #18 (S32H+Y52H+G57H)) VH: EVQLVQSGAEVKKPGSSVKVSCKASGYTITDHNIHWVRQAPGQSLEWIGYIHPYNGHTDYNQKFKNRATLTVDNPTNTAYMELSSLRSEDTDFYYCVNGNPWLAYWGQGTLVTVSS VL: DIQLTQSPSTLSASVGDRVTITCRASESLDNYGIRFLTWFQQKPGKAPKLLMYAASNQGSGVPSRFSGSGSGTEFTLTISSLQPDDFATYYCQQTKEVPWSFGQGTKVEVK	binding result	binds
